Exercise: for every item that follows, state its recorded inhibition at 20 ppm.
Test system: Septoria tritici
Experiment: B-9. Septoria tritici in vitro cell test
Format: cell-based
Conditions: Zymoseptoria tritici, 168 h; 20 ppm of active ingredient; 7 days incubation; liquid culture, absorbance; read-out: efficacy (inhibition of fungal growth)

Asked: Request the reported inhibition at 20 ppm associated with Cc1cc(Cl)ccc1C(F)(F)CNC(=O)c1c(Oc2cccc(C(F)(F)F)c2)nnc2c1CCCC2
Given back: 90 to 100%

Asked: Request the reported inhibition at 20 ppm associated with Cc1ccc(C(F)(F)CNC(=O)c2c(Oc3cccc(C4CC4)c3F)cnc3nccnc23)c(C)c1
Given back: 80 to 89%

Asked: Request the reported inhibition at 20 ppm associated with Cc1ccc(C(F)CNC(=O)c2c(Oc3cccc(C4CC4)c3F)nnc3c2CCCC3)c(C)c1 (stereo not shown)
Given back: 70 to 79%

Asked: Request the reported inhibition at 20 ppm associated with O=C(NCC(F)(F)c1ccc(Br)cc1Cl)c1c(Oc2cccc(C(F)(F)F)c2)nnc2c1CCC2
Given back: 90 to 100%

Numbers sourced from patent US20230192617A1.
